# target: T1, human TIGIT-Fc (rhTIGIT-Fc, R&D Systems) (human, UniProt Q495A1 22-141)
# T1 construct: Bought protein; also called human TIGIT (rhTIGIT-Fc); not shown: Fc part of the bought fusion protein
# T1 sequence: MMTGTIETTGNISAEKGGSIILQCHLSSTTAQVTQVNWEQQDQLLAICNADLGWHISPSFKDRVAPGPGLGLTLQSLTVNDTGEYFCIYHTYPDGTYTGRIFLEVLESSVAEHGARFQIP
# assay.notes: SPR (BIAcore T200), antibody immobilised on CM5 chip, TIGIT-Fc flowed
Parameter pKd: see the listing below.
# reply with the number alone; pKd is -log10 of concentration in mol/L

- binder: "F04-10-IgG1 (antibody, V domains shown, also called antibody based on the F04-10 clones) VH: EVQLLESGGGLVQPGGSLRLSCAASGFTFSSYYMSWVRQAPGKGLEWVSSIGSGSPSSTYYADSVKGRFTISRDNSKNTLYLQMNSLRAEDTAVYYCARSSYSGGNGYYYYAYAFDYWGQGTLVTVSS VL: EIVLTQSPGTLSLSPGERATLSCRASQSVSSSYLAWYQQKPGQAPRLLIYGASSRATGIPDRFSGSGSGTDFTLTISRLEPEDFAVYYCQQGYHRYATFGQGTKVEIK"
  pKd: 9.27

Query: What value of pKd has been recorded for this entry: 10A7 antibody (antibody, V domains shown) VH: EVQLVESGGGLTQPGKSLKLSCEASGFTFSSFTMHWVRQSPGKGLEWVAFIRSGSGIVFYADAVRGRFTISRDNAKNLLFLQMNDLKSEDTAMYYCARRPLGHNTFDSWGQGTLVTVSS VL: DIVMTQSPSSLAVSPGEKVTMTCKSSQSLYYSGVKENLLAWYQQKPGQSPKLLIYYASIRFTGVPDRFTGSGSGTDYTLTITSVQAEDMGQYFCQQGINNPLTFGDGTKLEIKR
Response: 8.93

Query: Then this binder: S64-39-IgG1 (antibody, V domains shown, also called 564-39-IgG1 [sic]; antibody based on the S64-39 clones) VH: EVQLLESGGGLVQPGGSLRLSCAASGFTFSNYAMSWVRQAPGKGLEWVSGISPSGSSIYYADSVQGRFTISRDNSKNTLYLQMNSLRAEDTAVYYCAKAIRTCSLSHCYYYYGMDVWGQGTLVTVSS VL: QSVLTQPPSASGTPGQRVTISCSSSSSNIGSNAVNWYQQLPGTAPKLLIYYDNQRPSGVPDRFSGSKSGTSASLAISGLRSEDEADYYCATWDYSLSGYVFGGGTKLTVL
Response: 8.88

Query: For S64-39-IgG4 (antibody, V domains shown, also called 564-39-IgG4 [sic]) VH: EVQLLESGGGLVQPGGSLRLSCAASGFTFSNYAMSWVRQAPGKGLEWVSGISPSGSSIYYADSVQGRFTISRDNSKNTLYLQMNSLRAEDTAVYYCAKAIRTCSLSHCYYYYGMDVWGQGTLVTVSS VL: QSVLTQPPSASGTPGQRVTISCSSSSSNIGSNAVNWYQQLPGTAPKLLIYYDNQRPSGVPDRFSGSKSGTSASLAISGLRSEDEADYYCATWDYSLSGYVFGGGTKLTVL then?
Response: 8.94
